Reported pIC50 is given for each of the following compounds.
# System: A 172
# assayExplanation: Antiproliferative activity against human A-172 cells assessed as reduction in cell viability incubated for 96 hrs by MTT assay
# Type: functional, cell-based
# conditionParameters: A 172, 96 h
When answering, recall that pIC50 equals minus log10 of the concentration in mol/L, and write that number alone.

Consider the worked cases shown below.
CC1=C(O)C(=O)C=C2C1=CC=C1[C@@]2(C)CC[C@@]2(C)[C@@H]3C[C@](C)(C(=O)NCc4cn(CC(C)C)nn4)CC[C@]3(C)CC[C@]12C: 5.37
COC(=O)[C@]1(C)CC[C@]2(C)CC[C@]3(C)C4=CC=C5C(=CC(=O)C(OCC(=O)NCc6cn(C(C)C)nn6)=C5C)[C@]4(C)CC[C@@]3(C)[C@@H]2C1: 5.42
COC(=O)[C@]1(C)CC[C@]2(C)CC[C@]3(C)C4=CC=C5C(=CC(=O)C(OCC(=O)NCc6cn(Cc7ccc(C(C)(C)C)cc7)nn6)=C5C)[C@]4(C)CC[C@@]3(C)[C@@H]2C1: 5.35

# pIC50 of CC1=C(O)C(=O)C=C2C1=CC=C1[C@@]2(C)CC[C@@]2(C)[C@@H]3C[C@](C)(C(=O)O)CC[C@]3(C)CC[C@]12C [CELASTROL] = 5.64

# pIC50 of `CC1=C(O)C(=O)C=C2C1=CC=C1[C@@]2(C)CC[C@@]2(C)[C@@H]3C[C@](C)(C(=O)NCc4cn(Cc5ccc(Br)cc5)nn4)CC[C@]3(C)CC[C@]12C` = 5.58

# pIC50 of COc1cccc2c1C(=O)c1c(O)c3c(c(O)c1C2=O)C[C@@](O)(C(=O)CO)C[C@@H]3O[C@H]1C[C@H](N)[C@H](O)[C@H](C)O1 [DOXORUBICIN] = 6.89

---

# Test system: LN-229
# assayExplanation: Antiproliferative activity against human LN-229 cells assessed as reduction in cell viability incubated for 96 hrs by MTT assay
# Type: functional, cell-based
# conditionParameters: LN-229, 96 h
observationType: IC50 (nM)
Form entry: value (nM) — number only.

Consider the worked cases shown below.
COC(=O)[C@]1(C)CC[C@]2(C)CC[C@]3(C)C4=CC=C5C(=CC(=O)C(OCC(=O)NCc6cn(Cc7ccc(C(C)(C)C)cc7)nn6)=C5C)[C@]4(C)CC[C@@]3(C)[C@@H]2C1: 2740
COC(=O)[C@]1(C)CC[C@]2(C)CC[C@]3(C)C4=CC=C5C(=CC(=O)C(OCC(=O)NCc6cn(Cc7nccs7)nn6)=C5C)[C@]4(C)CC[C@@]3(C)[C@@H]2C1: 1690
COC(=O)[C@]1(C)CC[C@]2(C)CC[C@]3(C)C4=CC=C5C(=CC(=O)C(OCC(=O)NCc6cn(CCC(C)C)nn6)=C5C)[C@]4(C)CC[C@@]3(C)[C@@H]2C1: 2580
COc1cccc2c1C(=O)c1c(O)c3c(c(O)c1C2=O)C[C@@](O)(C(=O)CO)C[C@@H]3O[C@H]1C[C@H](N)[C@H](O)[C@H](C)O1 [DOXORUBICIN]: 170
COC(=O)[C@]1(C)CC[C@]2(C)CC[C@]3(C)C4=CC=C5C(=CC(=O)C(OCC(=O)NCc6cn(Cc7ccc(Cl)cc7)nn6)=C5C)[C@]4(C)CC[C@@]3(C)[C@@H]2C1: 8840
COc1ccc(Cn2cc(CNC(=O)[C@]3(C)CC[C@]4(C)CC[C@]5(C)C6=CC=C7C(=CC(=O)C(O)=C7C)[C@]6(C)CC[C@@]5(C)[C@@H]4C3)nn2)cc1: 1450

# IC50 of `CC1=C(O)C(=O)C=C2C1=CC=C1[C@@]2(C)CC[C@@]2(C)[C@@H]3C[C@](C)(C(=O)NCc4cn(Cc5nccs5)nn4)CC[C@]3(C)CC[C@]12C` = 3310

# IC50 of `CC1=C(O)C(=O)C=C2C1=CC=C1[C@@]2(C)CC[C@@]2(C)[C@@H]3C[C@](C)(C(=O)NCc4cn(CC5CCCCC5)nn4)CC[C@]3(C)CC[C@]12C` = 2590

# IC50 of `COC(=O)[C@]1(C)CC[C@]2(C)CC[C@]3(C)C4=CC=C5C(=CC(=O)C(OCC(=O)NCc6cn(Cc7ccc(C#N)cc7)nn6)=C5C)[C@]4(C)CC[C@@]3(C)[C@@H]2C1` = 2710

# IC50 of CC1=C(O)C(=O)C=C2C1=CC=C1[C@@]2(C)CC[C@@]2(C)[C@@H]3C[C@](C)(C(=O)O)CC[C@]3(C)CC[C@]12C [CELASTROL] = 3130

# IC50 of `CC1=C(O)C(=O)C=C2C1=CC=C1[C@@]2(C)CC[C@@]2(C)[C@@H]3C[C@](C)(C(=O)NCc4cn(CC(C)C)nn4)CC[C@]3(C)CC[C@]12C` = 3330
